Sourced from patent US8835469B2

# tgt: glucokinase (GK) enzyme (Homo sapiens)
# Sequence (P35557 1-465): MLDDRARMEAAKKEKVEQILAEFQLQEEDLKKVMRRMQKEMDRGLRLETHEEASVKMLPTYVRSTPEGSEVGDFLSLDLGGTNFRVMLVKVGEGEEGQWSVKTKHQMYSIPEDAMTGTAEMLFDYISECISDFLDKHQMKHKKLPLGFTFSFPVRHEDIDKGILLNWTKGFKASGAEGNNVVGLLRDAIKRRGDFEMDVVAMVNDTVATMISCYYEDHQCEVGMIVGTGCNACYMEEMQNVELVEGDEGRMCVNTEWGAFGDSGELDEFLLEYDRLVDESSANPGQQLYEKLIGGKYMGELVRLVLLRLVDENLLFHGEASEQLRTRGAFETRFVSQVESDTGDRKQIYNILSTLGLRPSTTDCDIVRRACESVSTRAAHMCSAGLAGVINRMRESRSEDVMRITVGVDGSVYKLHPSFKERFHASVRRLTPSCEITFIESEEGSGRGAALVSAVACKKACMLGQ
# procedure text: In-vitro glucokinase (GK) activation assay (coupled with glucose-6-phosphate dehydrogenase, absorbance at 340)
# Format: biochemical
# measurement conditions: 0.1 uM compound; glucose 2.5 mM; read-out: % of GK activity wrt DMSO
attribute measured: activity at 0.1 µM (%)

Reference set, count: 6
Cc1nnc(-c2ccc(Oc3cc(OC4CCN(C)C4=O)cc(C(=O)Nc4nccs4)c3)cc2)o1 (centres unmarked): 276
Cc1nnc(-c2ccc(Oc3cc(OC4CCN(C)C4=O)cc(C(=O)Nc4cc(C)n(C(=O)OC(C)(C)C)n4)c3)cc2)o1 (centres unmarked): 107
Cc1nnc(-c2ccc(Oc3cc(OC4CCN(C5CC5)C4=O)cc(C(=O)Nc4ncc(C)s4)c3)cc2)o1 (centres unmarked): 121
Cc1csc(NC(=O)c2cc(Oc3ccc(-c4nnc(C)o4)cc3)cc(OC3CCN(C)C3=O)c2)n1 (centres unmarked): 234
Cc1nnc(-c2cccc(Oc3cc(OC4CCN(C)C4=O)cc(C(=O)Nc4nccs4)c3)c2)o1 (centres unmarked): 130
Cc1nnc(-c2ccc(Oc3cc(OC4CCN(C(C)C)C4=O)cc(C(=O)Nc4ncc(C)s4)c3)cc2)o1 (centres unmarked): 125

(I) Cc1nnc(-c2ccc(Oc3cc(OC4CCN(C)C4=O)cc(C(=O)Nc4nc5ccccc5s4)c3)cc2)o1 (centres unmarked)
(II) Cc1nnc(-c2ccc(Oc3cc(OC4CCN(C)C4=O)cc(C(=O)n4c(N)nc5ccccc54)c3)cc2)o1 (centres unmarked)
Query block: Of I and II , whose reported activity at 0.1 µM is numerically smaller? Please reply using the label of the selected record.
Result block: II
(II: 101%, I: 271%)

(a) Cc1nnc(-c2ccc(Oc3cc(O[C@H]4CCN(C)C4=O)cc(C(=O)Nc4nccs4)c3)cc2)o1
(b) Cc1nnc(-c2ccc(Oc3cc(OC4CCN(C)C4=O)cc(C(=O)NC4=NCCS4)c3)cc2)o1 (centres unmarked)
Query block: Return label of the item with the larger activity at 0.1 µM. Candidates: a , b . Please reply using the label of the selected record.
Result block: a

(A) CCc1nnc(-c2ccc(Oc3cc(OC4CCN(C)C4=O)cc(C(=O)Nc4nccs4)c3)cc2)o1 (centres unmarked)
(B) Cc1nnc(-c2ccc(Oc3cc(OC4CCN(C)C4=O)cc(C(=O)Nc4nc(CCN5CCOCC5=O)cs4)c3)cc2)o1 (centres unmarked)
Query block: Return label of the item with the larger activity at 0.1 µM. Candidates: A , B . Please reply using the label of the selected record.
Result block: A

(a) CCOC(=O)Cc1csc(NC(=O)c2cc(Oc3ccc(-c4nnc(C)o4)cc3)cc(OC3CCN(C)C3=O)c2)n1 (centres unmarked)
(b) CCOC(=O)c1cnc(NC(=O)c2cc(Oc3ccc(-c4nnc(C)o4)cc3)cc(OC3CCN(C)C3=O)c2)s1 (centres unmarked)
Query block: Return label of the item with the larger activity at 0.1 µM. Candidates: a , b . Please reply using the label of the selected record.
Result block: a
(a: 186%, b: 125%)

(P) Cc1cc(NC(=O)c2cc(Oc3ccc(-c4nnc(C)o4)cc3)cc(OC3CCN(C)C3=O)c2)n[nH]1 (centres unmarked)
(Q) Cc1nnc(-c2ccc(Oc3cc(OC4CCN(C)C4=O)cc(C(=O)Nc4ncc(C(=O)O)s4)c3)cc2)o1 (centres unmarked)
Query block: Return label of the item with the larger activity at 0.1 µM. Candidates: P , Q . Please reply using the label of the selected record.
Result block: P
(P: 146%, Q: 95.5%)

(1) Cc1nc(-c2ccc(Oc3cc(OC4CCN(C)C4=O)cc(C(=O)Nc4nccs4)c3)cc2)no1 (centres unmarked)
(2) Cc1nnc(-c2ccc(Oc3cc(OC4CCN(C)C4=O)cc(C(=O)Nc4nc(-c5ccccc5)cs4)c3)cc2)o1 (centres unmarked)
Query block: Return label of the item with the larger activity at 0.1 µM. Candidates: 1 , 2 . Please reply using the label of the selected record.
Result block: 1

(I) Cc1nnc(-c2ccc(Oc3cc(OC4CCN(C5CCCCC5)C4=O)cc(C(=O)Nc4nccs4)c3)cc2)o1 (centres unmarked)
(II) Cc1nnc(-c2ccc(Oc3cc(OC4CCN(C)C4=O)cc(C(=O)Nc4ncc(C)s4)c3)cc2)o1 (centres unmarked)
Query block: Of I and II , whose reported activity at 0.1 µM is numerically smaller? Please reply using the label of the selected record.
Result block: I

(1) CCc1nnc(-c2ccc(Oc3cc(OC4CCN(C)C4=O)cc(C(=O)Nc4nc(C)cs4)c3)cc2)o1 (centres unmarked)
(2) Cc1csc(NC(=O)c2cc(Oc3ccc(-c4nnc(C)o4)cc3)cc(OC3CCN(C(C)C)C3=O)c2)n1 (centres unmarked)
Query block: Of 1 and 2 , whose reported activity at 0.1 µM is numerically smaller? Please reply using the label of the selected record.
Result block: 2
(2: 106%, 1: 177%)

----------
# tgt: glucokinase (GK) enzyme (Homo sapiens, UniProt P35557)
# procedure text: In-vitro glucokinase (GK) activation assay (coupled with glucose-6-phosphate dehydrogenase, absorbance at 340)
# Format: biochemical
# measurement conditions: 10 uM compound; glucose 2.5 mM; read-out: % of GK activity wrt DMSO
attribute measured: activity at 10 µM (%)

Cc1nnc(-c2ccc(Oc3cc(O[C@H]4CCN(C)C4=O)cc(C(=O)Nc4nccs4)c3)cc2)o1 [Example 68]: 271
CCOC(=O)Cc1csc(NC(=O)c2cc(Oc3ccc(-c4nnc(C)o4)cc3)cc(OC3CCN(C)C3=O)c2)n1 (stereo not shown) [Example 3]: 316
Cc1nnc(-c2ccc(Oc3cc(OC4CCN(C)C4=O)cc(C(=O)Nc4ncc(C(=O)O)s4)c3)cc2)o1 (stereo not shown) [Example 15]: 237
Cc1nnc(-c2ccc(Oc3cc(OC4CCN(C)C4=O)cc(C(=O)Nc4ncc(Br)s4)c3)cc2)o1 (stereo not shown) [Example 38]: 256

----------
# tgt: glucokinase (GK) enzyme (Homo sapiens, UniProt P35557)
# procedure text: In-vitro glucokinase (GK) activation assay (coupled with glucose-6-phosphate dehydrogenase, absorbance at 340)
# Assay type: biochemical
# measurement conditions: 1 uM compound; glucose 2.5 mM; read-out: % of GK activity wrt DMSO
attribute measured: activity at 1 µM (%)

CCOC(=O)Cc1csc(NC(=O)c2cc(Oc3ccc(-c4nnc(C)o4)cc3)cc(OC3CCN(C)C3=O)c2)n1 (centres unmarked): 284
Cc1nnc(-c2ccc(Oc3cc(O[C@@H]4CCN(C)C4=O)cc(C(=O)Nc4nccs4)c3)cc2)o1: 141
Cc1nnc(-c2ccc(Oc3cc(OC4CCN(C)C4=O)cc(C(=O)Nc4nnc(C5CC5)s4)c3)cc2)o1 (centres unmarked): 195

(P) Cc1nnc(-c2ccc(Oc3cc(OC4CCN(C)C4=O)cc(C(=O)Nc4nccs4)c3)cc2)o1 (centres unmarked)
(Q) Cc1csc(NC(=O)c2cc(Oc3ccc(-c4nnc(C)o4)cc3)cc(OC3CCN(C(C)C)C3=O)c2)n1 (centres unmarked)
Query block: Of P and Q , whose reported activity at 1 µM is numerically smaller? Please reply using the label of the selected record.
Result block: Q

----------
# tgt: glucokinase (GK) enzyme (Homo sapiens)
# Sequence (P35557 1-465): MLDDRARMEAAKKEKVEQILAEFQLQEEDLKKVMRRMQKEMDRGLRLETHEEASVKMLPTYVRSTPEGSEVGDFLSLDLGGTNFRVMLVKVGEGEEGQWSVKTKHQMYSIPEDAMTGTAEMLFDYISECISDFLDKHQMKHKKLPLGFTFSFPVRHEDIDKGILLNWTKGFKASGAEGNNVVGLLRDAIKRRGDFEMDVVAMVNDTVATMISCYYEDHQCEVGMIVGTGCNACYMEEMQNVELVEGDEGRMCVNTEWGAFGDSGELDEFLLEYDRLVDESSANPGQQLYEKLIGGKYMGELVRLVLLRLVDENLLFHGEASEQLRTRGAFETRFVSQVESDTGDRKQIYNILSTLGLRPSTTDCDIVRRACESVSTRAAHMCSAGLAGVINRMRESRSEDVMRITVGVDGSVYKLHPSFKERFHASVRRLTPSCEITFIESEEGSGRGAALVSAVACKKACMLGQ
# procedure text: In-vitro glucokinase (GK) activation assay (coupled with glucose-6-phosphate dehydrogenase, absorbance at 340)
# Type: biochemical
# measurement conditions: 0.1 uM compound; glucose 2.5 mM; read-out: % of GK activity wrt DMSO
attribute measured: activity at 0.1 µM (%)

Reference set, count: 2
Cc1nnc(-c2ccc(Oc3cc(OC4CCN(C5CC5)C4=O)cc(C(=O)Nc4nccs4)c3)cc2)o1 (stereo not shown): 120
Cc1csc(NC(=O)c2cc(Oc3ccc(-c4nnc(-c5ccccc5)o4)cc3)cc(OC3CCN(C)C3=O)c2)n1 (stereo not shown): 146

(P) Cc1csc(NC(=O)c2cc(Oc3ccc(-c4nnc(CC(C)C)o4)cc3)cc(OC3CCN(C)C3=O)c2)n1 (stereo not shown)
(Q) CCN1CCC(Oc2cc(Oc3ccc(-c4nnc(C)o4)cc3)cc(C(=O)Nc3nccs3)c2)C1=O (stereo not shown)
Query block: Of P and Q , whose reported activity at 0.1 µM is numerically smaller? Please reply using the label of the selected record.
Result block: P
(P: 126%, Q: 181%)
